- System: MS2 coat protein
- Assay Overview: apparent KD of MS2 coat protein; higher = weaker reporter binding
- Assay Setup: Eterna round: R107; input ligand: arginine 13.2 mM
Rule: MET for apparent KD of MS2 coat protein not less than 20 nM, NOT MET for anything less.

Biopolymer Sequence	Test Target	Classification
GACAUUAACUGAAGGAGCGAGGUAGAACGGGAUGAGCAUACAUGAGGAUCACCCAUGUGGCCUCAGGUAGGUCGCAGAUGAGAUU [Exclusion Arginine B GF25]	MS2 coat protein	MET
GGUAUGUAUUCGGAAACGAAUGCAUACCAACGAGGACCGGUACGGCCGCCACUCGGGCGGCGAUCACAUGAGGAUCACCCAUGUA [Ex Tryptophan A 2]	MS2 coat protein	MET
ACGACAUGAGGAUCACCCAUGUAAGGUGAUACCAGACGAAGUAAUGUCCCUUGGCAGCACAAGCAUAGUUGCGAUUAUUGUACGA [JR_SSTheophyA_Sub006]	MS2 coat protein	MET
UAACAUGAGGAUCACCCAUGUUUAGAUGAACGAGGACCGGUACGGCCGCCACUCGAUAAGUGGCAAGAACGAGGGAUUGUAUGCU [Same State Trp A GF3]	MS2 coat protein	NOT MET
CUCCCGUGGUCGGCCGCCACUGGAGGCUUUGCGCGACAUGAGGAUCACCCAUGUGUGCCCGGCGUCAGGACCGGGAUCGCGUGAG [#1 Same State - Tryptophan B Attempt #13 (HarryS)]	MS2 coat protein	NOT MET
GGACUAACCUGAAGGAGCGACGCGCAGAAACUGCAAAUUCCUCCACACGAGGAUCACCCGUGUCAGGUAGGUCGCAGGUUAGUCG [ArgBX 28]	MS2 coat protein	NOT MET
UUGUACGAAACUGAUACCAGCCAGCAAUGCCACCAAGAGCACAUGAGGAUCACCCAUGUUGGCCCUUGGCAGCAGGACAAUAAGC [theeternabot_exclusion_MS2_Theo_B_3]	MS2 coat protein	NOT MET
AAAGCCUUGCCCGGUGUUCCGAAAGUGGAAGGAGCGCACAUUGGUGCAGGUAGGUCGCCACAUGAGGAUCACCCAUGUCUAGGCU [Isbeat]	MS2 coat protein	MET
AAUUUUAACGGAAGGAGCGUCAAUUAAUACAAACAUGAGGAUCACCCAUGUCAAUACAUGAGACAGGUAGGUCGCCGUUAUUUGA [JR_AAArginiB_Sub024]	MS2 coat protein	MET
AUUAUAGUUUAUAAGGAAAUUGAAACAGAAGGAGCGUGAGUAAUCACAGGUAGGUCGCUGGUAGUACAUGAGGAUCACCCAUGUU [JR_Nu_SSArginiA_Sub019]	MS2 coat protein	MET
GAACAGUCGGACAUGAGGAUCACCCAUGUGCGAGGACCGGUACGGCCGCCACUCGACAAGGGCGGUCCCGAAGCGAACAUACGCG [Cecearla]	MS2 coat protein	NOT MET
